Sourced from the supplement of paper PMC11061612

Reported combination Emax values are given for each entry in this list.
# Tested on: NCI-H1755 (Lung Adenocarcinoma)
# runDescription: combination Emax (second highest fraction inhibited in the dose matrix, 72 h); higher = more inhibition; extreme values may be limits of the assay
In your answer, state the number alone without any accompanying words.

These solved cases illustrate the format of a correct answer.
- compound: "COc1nnc2ccc(N3CCC(c4ccc(OCCN5CCN(C)C(=O)[C@H]5C)cc4)CC3)nn12 [AZD5153] + Cn1cnc2c(F)c(Nc3ccc(Br)cc3Cl)c(C(=O)NOCCO)cc21 [Selumetinib] (first compound max 1 µM, 7x7, partner max 10 µM)"
  combination Emax: 0.564
- compound: "Cc1c2c(nn1C)CSCc1cc(n(C)n1)CSc1cc(c3ccccc3c1)OCCCc1c(C(=O)O)n(C)c3c-2c(Cl)ccc13 [AZD5991] + CC(=O)O[C@H]1C(=O)[C@@]2(C)[C@H]([C@H](OC(=O)c3ccccc3)[C@]3(O)C[C@H](OC(=O)[C@H](O)[C@@H](NC(=O)c4ccccc4)c4ccccc4)C(C)=C1C3(C)C)[C@]1(OC(C)=O)CO[C@@H]1C[C@@H]2O [Paclitaxel] (first compound max 1 µM, 7x7, partner max 3 µM)"
  combination Emax: 0.734

Now look at this entry.
Give reported combination Emax value for CN(CCO)CC[C@H](CSc1ccccc1)Nc1ccc(S(=O)(=O)NC(=O)c2ccc(N3CCC([C@@H](O)c4ccccc4-c4ccc(Cl)cc4)CC3)cc2)cc1S(=O)(=O)C(F)(F)F [AZD4320] + Cc1cc2ncnn2cc1Nc1ncc2c(n1)n(C1CCOCC1)c(=O)n2C [AZD7648] (first compound max 1 µM, 7x7, partner max 10 µM)
0.286
